- Measured target: RARβ (Homo sapiens, UniProt P10826)
- Sequence (P10826 1-448 isoform P10826-2): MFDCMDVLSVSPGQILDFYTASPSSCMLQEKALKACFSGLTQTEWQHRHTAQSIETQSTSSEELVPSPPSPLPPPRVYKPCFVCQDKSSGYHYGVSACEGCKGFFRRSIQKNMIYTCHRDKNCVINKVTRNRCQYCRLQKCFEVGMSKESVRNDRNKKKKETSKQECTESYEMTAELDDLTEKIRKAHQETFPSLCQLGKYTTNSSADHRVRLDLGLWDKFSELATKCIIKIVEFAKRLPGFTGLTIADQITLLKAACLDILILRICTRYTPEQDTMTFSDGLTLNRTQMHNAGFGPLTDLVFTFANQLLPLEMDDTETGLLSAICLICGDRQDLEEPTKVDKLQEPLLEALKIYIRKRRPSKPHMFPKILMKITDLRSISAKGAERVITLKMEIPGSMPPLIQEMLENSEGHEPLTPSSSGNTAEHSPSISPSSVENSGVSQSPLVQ
- Experiment: RAR Transactivation, RARβ (HeLa cells cotransfected with human RAR expression vector and TREpp-tk-CAT reporter)
- Assay type: cell-based
- Parameters: expressed in transfected cells
- Condition: concentration eliciting 50% of the maximum CAT activity
Recorded AC50 by entry

>>> df
                                   molecule  test_result
0  COc1ccc(C2=Cc3ccc(C(=O)O)cc3OC2)cc1C12CC3CC(CC(C3)C1)C2 [Example 1]         2 nM
1  CC1(C)CCC(C)(C)c2cc(C3=Cc4ccc(C(=O)O)cc4OC3)ccc21 [Example 2]         2 nM
2  CC(C)(C)c1cc(C2=Cc3ccc(C(=O)O)cc3OC2)cc(C(C)(C)C)c1O [Example 11]        77 nM

Let us examine a further case.
Please report the recorded AC50 for O=C(O)c1ccc2c(c1)OCC(c1ccc(O)c(C34CC5CC(CC(C5)C3)C4)c1)=C2 [Example 13] .
20 nM

###

- Measured target: RARγ (Homo sapiens)
- Construct: expressed in transfected cells; host or cells: HeLa
- Sequence (P13631 whole entry): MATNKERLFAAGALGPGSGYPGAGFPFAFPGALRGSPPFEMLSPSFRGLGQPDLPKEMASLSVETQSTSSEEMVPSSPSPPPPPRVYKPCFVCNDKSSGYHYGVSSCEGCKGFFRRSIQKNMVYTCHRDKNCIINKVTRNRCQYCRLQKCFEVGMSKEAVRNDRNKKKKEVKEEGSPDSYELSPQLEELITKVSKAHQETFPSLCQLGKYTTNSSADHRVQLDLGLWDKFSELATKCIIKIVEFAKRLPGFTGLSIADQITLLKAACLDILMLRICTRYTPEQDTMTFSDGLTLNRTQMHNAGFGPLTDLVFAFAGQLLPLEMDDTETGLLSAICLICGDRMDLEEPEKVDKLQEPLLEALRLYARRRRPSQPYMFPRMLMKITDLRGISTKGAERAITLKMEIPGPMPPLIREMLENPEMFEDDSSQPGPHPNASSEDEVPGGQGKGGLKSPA
- Experiment: RAR Transactivation, RARγ (HeLa cells cotransfected with human RAR expression vector and TREpp-tk-CAT reporter)
- Format: cell-based
- Condition: concentration eliciting 50% of the maximum CAT activity
Recorded AC50 by entry
# value in nM; strip the unit string

# count of solved cases: 3
>>> print(df.to_string())
                               smiles_entry  test_result
0  COc1ccc(C2=Cc3ccc(C(=O)O)cc3OC2)cc1C12CC3CC(CC(C3)C1)C2            4
1  CC1(C)CCC(C)(C)c2cc(C3=Cc4ccc(C(=O)O)cc4OC3)ccc21           15
2  CC(C)(C)c1cc(C2=Cc3ccc(C(=O)O)cc3OC2)cc(C(C)(C)C)c1O          157

Let us examine a further case.
Please report the recorded AC50 for `O=C(O)c1ccc2c(c1)OCC(c1ccc(O)c(C34CC5CC(CC(C5)C3)C4)c1)=C2` .
6

###

- Measured target: RARβ (Homo sapiens, UniProt P10826)
- Sequence (P10826 1-448 isoform P10826-2): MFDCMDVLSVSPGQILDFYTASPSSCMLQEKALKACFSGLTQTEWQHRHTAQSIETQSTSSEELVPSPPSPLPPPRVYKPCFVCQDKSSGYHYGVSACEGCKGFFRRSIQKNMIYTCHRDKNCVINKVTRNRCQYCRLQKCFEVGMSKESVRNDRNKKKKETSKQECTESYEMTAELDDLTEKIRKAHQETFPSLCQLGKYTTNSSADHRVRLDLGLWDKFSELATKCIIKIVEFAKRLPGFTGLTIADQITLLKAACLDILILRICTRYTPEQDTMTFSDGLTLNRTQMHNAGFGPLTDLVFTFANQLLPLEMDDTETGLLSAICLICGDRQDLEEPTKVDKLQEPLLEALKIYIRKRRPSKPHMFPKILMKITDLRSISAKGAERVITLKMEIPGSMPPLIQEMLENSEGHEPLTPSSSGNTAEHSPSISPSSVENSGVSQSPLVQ
- Experiment: RAR binding, RARβ (competition binding, nuclear extracts of transfected cos-7 cells)
- Condition: recombinant human receptors, cos-7 nuclear extracts; competition with [H^3]-4-(5,6,7,8-tetrahydro-5,5,8,8-tetramethyl-2-anthracenyl benzoic acid)
Recorded Kd by entry
# value in µM; strip the unit string

>>> print(df.to_string())
                               smiles_entry                      measured_target  readout_unit  test_result
0  CC(C)(C)c1cc(C2=Cc3ccc(C(=O)O)cc3OC2)cc(C(C)(C)C)c1O  RARβ (Homo sapiens, UniProt P10826)            µM         3.68

Let us examine a further case.
Please report the recorded Kd for `O=C(O)c1ccc2c(c1)OCC(c1ccc(O)c(C34CC5CC(CC(C5)C3)C4)c1)=C2` .
3.3
